Answer each item with its documented hAM1R EC50 (cAMP).
- Target under test: hAM1R (human, UniProt Q16602)
- Test description: cell-based or functional assay
Bridge positions count the residues as written; N and C are the ends. Square brackets hold non-standard residues; d marks the D form. Ends that are not written are not given here. Hyp = O=C(O)[C@@H]1C[C@@H](O)CN1
Report the value in nM with no unit label.

Inquiry: Please report the recorded hAM1R EC50 (cAMP) for GCRTGTCTVQRLAHQIYQFTDKDKDNVAPRSNIGPQGY [SEQ ID NO: 191] .
Reply text: 2980

Inquiry: Please report the recorded hAM1R EC50 (cAMP) for GCRFGTCTVQRLAHQIYQFTDKDKDNVAPRTNISPQG[Hyp]-NH2 (disulfide 2-7 (inferred); ends not checked) [SEQ ID NO: 141] .
Reply text: 258
